protocol-details: TIMS collisional cross section (CCS, N2) of the lipid ion; higher = larger ion cross section
study-conditions: sample type: Liver; ionization mode: positive; one isomer drawn
assay-readout: TIMS collisional cross section (Å²)

| molecule | result-units | numeric-readout |
| --- | --- | --- |
| CC/C=C\C/C=C\C/C=C\C/C=C\C/C=C\C/C=C\CCC(=O)OC[C@@H](COC(=O)CCCCCCCCCCCC)OC(=O)CCCCCCCCCCCCC [TG 13:0_14:0_22:6] (ion (formula + adduct): [C52H88O6+NH4] 1+) | Å² | 305.2 |
| CCCCCCCCCCCCCCCCCC(=O)OC[C@@H](COC(=O)CCCCCCCCCCCCCCC)OC(=O)CCCCCCCCCCCCCCC [TG 16:0_16:0_18:0] (ion (formula + adduct): [C53H102O6+NH4] 1+) | Å² | 320.7 |
| CC/C=C\C/C=C\C/C=C\C/C=C\C/C=C\C/C=C\CCC(=O)O[C@H](CO/C=C\CCCCCCCCCCCCCCCC)COP(=O)(O)OCCN [PE P- 18:0@_22:6] (ion (formula + adduct): [C45H78NO7P+H] 1+) | Å² | 285 |
| CCCCCCCCCCCCCCCC(=O)OC[C@@H](COC(=O)CCCCCCCCCCCC)OC(=O)CCCCCCCCCCCCC [TG 13:0_14:0_16:0] (ion (formula + adduct): [C46H88O6+NH4] 1+) | Å² | 298.5 |

* * *

protocol-details: TIMS collisional cross section (CCS, N2) of the lipid ion; higher = larger ion cross section
study-conditions: sample type: HeLa; ionization mode: positive; one isomer drawn
TIMS collisional cross section reference

| compound | result-units | TIMS collisional cross section |
| --- | --- | --- |
| CC/C=C\C/C=C\C/C=C\C/C=C\C/C=C\CCCCCC(=O)O[C@@H](CO)COC(=O)CCCCCCCCCCCCCCC [DG 16:0_22:5_0:0] (ion (formula + adduct): [C41H70O5+NH4] 1+) | Å² | 266.6 |
| CCCCCCCCCCCCCCCCCCCC(=O)OC[C@@H](COC(=O)CCCCCCCCCCCCCCC)OC(=O)CCCCCCCCCCCCCCCC [TG 16:0_17:0_20:0] (ion (formula + adduct): [C56H108O6+NH4] 1+) | Å² | 328.6 |
| CCCCCC/C=C\CCCCCCCC(=O)O[C@H](COC(=O)CCCCCCCCCCCCCCC)COC(=O)CCCCCCCCCCCCCCCC [TG 16:0_16:1_17:0] (ion (formula + adduct): [C52H98O6+NH4] 1+) | Å² | 315.8 |
| CC(C)CCC[C@@H](C)[C@H]1CC[C@H]2[C@@H]3C(=O)C=C4C=CCC[C@]4(C)[C@H]3CC[C@]12C [3,5-cholestadien-7-one] (ion (formula + adduct): [C27H42O+H] 1+) | Å² | 203.63 |
| CCCCCCCCCCCCCCCCCCCCC(=O)OC[C@@H](COC(=O)CCCCCCCCCCCCCCC)OC(=O)CCCCCCCCCCCCCCCCCCC [TG 16:0_20:0_21:0] (ion (formula + adduct): [C60H116O6+NH4] 1+) | Å² | 339.7 |
| CCCCC/C=C\C/C=C\CCCCCCCC(=O)O[C@H](COC(=O)CCCCCCC/C=C\CCCCCC)COP(=O)([O-])OCC[N+](C)(C)C [PC 16:1_18:2] (ion (formula + adduct): [C42H78NO8P+H] 1+) | Å² | 282.6 |
| CCCCC/C=C\C/C=C\C/C=C\C/C=C\CCCC(=O)OC[C@@H](COC(=O)CCCCCCCCCCCCCCC)OC(=O)CCCCCCCCCCCCCCC [TG 16:0_16:0_20:4] (ion (formula + adduct): [C55H98O6+NH4] 1+) | Å² | 320.5 |
| CCCCCCCCCCCCCC/C=C\OC[C@H](COP(=O)(O)OCCN)OC(=O)CCCCCCCCCCCCCCC [PE P- 16:0_16:0] (ion (formula + adduct): [C37H74NO7P+H] 1+) | Å² | 272 |
| CC/C=C\C/C=C\C/C=C\C/C=C\C/C=C\CCCC(=O)O[C@H](CO/C=C\CCCCCCCCCCCCCCCCCC)COP(=O)([O-])OCC[N+](C)(C)C [PC P- 20:0@_20:5] (ion (formula + adduct): [C48H86NO7P+H] 1+) | Å² | 299.9 |

* * *

protocol-details: TIMS collisional cross section (CCS, N2) of the lipid ion; higher = larger ion cross section
study-conditions: sample type: plasma; ionization mode: positive; one isomer drawn
Measured TIMS collisional cross section, listed per entry.

| compound | result-units | TIMS collisional cross section |
| --- | --- | --- |
| CCCCC/C=C\C/C=C\C/C=C\C/C=C\CCCC(=O)OC[C@@H](COC(=O)CCCCCCCCCCCCC)OC(=O)CCCCCCCCCCCCCCC [TG 14:0_16:0_20:4] (ion (formula + adduct): [C53H94O6+NH4] 1+) | Å² | 314.2 |
| CCCCC/C=C\C/C=C\C/C=C\C/C=C\CCCC(=O)O[C@H](COC(=O)CCCCCCCCCCCCCCCCC)COP(=O)([O-])OCC[N+](C)(C)C [PC 18:0@_20:4] (ion (formula + adduct): [C46H84NO8P+H] 1+) | Å² | 296 |
| CCCCCCCCCCCCCCCCCC(=O)OCC(CO)OC(=O)CCCCCCCCCCCCCCCCC (stereo not drawn) [DG 18:0_18:0_0:0] (ion (formula + adduct): [C39H76O5+NH4] 1+) | Å² | 273.4 |

* * *

protocol-details: TIMS collisional cross section (CCS, N2) of the lipid ion; higher = larger ion cross section
study-conditions: sample type: Liver; ionization mode: positive; one isomer drawn
Some molecules, each annotated with its measured TIMS collisional cross section.
assay-readout: TIMS collisional cross section (Å²)

| molecule | assay-readout | numeric-readout |
| --- | --- | --- |
| CCCCCCCC/C=C\CCCCCCCC(=O)OC[C@@H](COC(=O)CCCCCCCCCCCCCCC)OC(=O)CCCCCCCCCCCCCCCC [TG 16:0_17:0_18:1] (ion (formula + adduct): [C54H102O6+NH4] 1+) | TIMS collisional cross section | 321.6 |
| CCCCCCCCCCCCCCCC(=O)O[C@H](CO)COP(=O)(O)OCCN [LPE 16:0] (ion (formula + adduct): [C21H44NO7P+H] 1+) | TIMS collisional cross section | 214.5 |
| CCCCC/C=C\C/C=C\C/C=C\C/C=C\C/C=C\CCC(=O)O[C@H](COC(=O)CCCCCCCCCCCCCCC)COP(=O)([O-])OCC[N+](C)(C)C [PC 16:0@_22:5] (ion (formula + adduct): [C46H82NO8P+H] 1+) | TIMS collisional cross section | 293.8 |
| CCCCCC/C=C/CCCCCCCC(=O)OC[C@@H](O)COP(=O)([O-])OCC[N+](C)(C)C [LPC 16:1] (ion (formula + adduct): [C24H48NO7P+H] 1+) | TIMS collisional cross section | 224.5 |
| CC/C=C\C/C=C\C/C=C\CCCCCCCC(=O)OC[C@@H](COC(=O)CCCCCCCCCCCCCCCCC)OC(=O)CCCCCCC/C=C\CCCCCCCC [TG 18:0_18:1_18:3] (ion (formula + adduct): [C57H102O6+NH4] 1+) | TIMS collisional cross section | 324.1 |
| CCCCC/C=C\C/C=C\CCCCCCCC(=O)OC[C@@H](COC(=O)CCCCCCCCCCCCCCC)OC(=O)CCCCCCC/C=C\CCCCCCCC [TG 16:0_18:1_18:2] (ion (formula + adduct): [C55H100O6+NH4] 1+) | TIMS collisional cross section | 314.1 |
| CCCCCCCC/C=C\CCCCCCCCCCCC(=O)N[C@@H](COP(=O)([O-])OCC[N+](C)(C)C)[C@H](O)/C=C/CCCCCCCCCCCCC [SM d18:1_22:1@] (ion (formula + adduct): [C45H89N2O6P+H] 1+) | TIMS collisional cross section | 299.3 |
| CCCCC/C=C\C/C=C\CCCCCCCC(=O)O[C@H](COC(=O)CCCCCCCCCCCCCCCC)COP(=O)([O-])OCC[N+](C)(C)C [PC 17:0_18:2] (ion (formula + adduct): [C43H82NO8P+H] 1+) | TIMS collisional cross section | 288.1 |
| CCCCC/C=C\C/C=C\C/C=C\CCCCCCC(=O)O[C@@H](CO)COC(=O)CCCCCCCCCCCCCCC [DG 16:0_20:3_0:0] (ion (formula + adduct): [C39H70O5+H] 1+) | TIMS collisional cross section | 265.1 |

* * *

protocol-details: TIMS collisional cross section (CCS, N2) of the lipid ion; higher = larger ion cross section
study-conditions: sample type: Liver; ionization mode: positive; one isomer drawn
assay-readout: TIMS collisional cross section

| compound | assay-readout | result |
| --- | --- | --- |
| CC/C=C\C/C=C\C/C=C\C/C=C\C/C=C\C/C=C\CCC(=O)O[C@H](COC(=O)CCCCCCCCC/C=C\CCCCCC)COP(=O)([O-])OCC[N+](C)(C)C [PC 18:1_22:6] (ion (formula + adduct): [C48H82NO8P+H] 1+) | TIMS collisional cross section | 295.6 Å² |
| CCCCC/C=C\CCCCCCCC(=O)OC[C@H](COC(=O)CCCCCCC/C=C\CCCCCC)OC(=O)CCCCCCCCCCCCCCC [TG 15:1_16:0_16:1] (ion (formula + adduct): [C50H92O6+NH4] 1+) | TIMS collisional cross section | 307.4 Å² |
| CCCCCCCC/C=C\CCCCCCCC(=O)OC[C@@H](COC(=O)CCCCCCCCCCCCCCCC)OC(=O)CCCCCCCCCCCCCCCCC [TG 17:0_18:0_18:1] (ion (formula + adduct): [C56H106O6+NH4] 1+) | TIMS collisional cross section | 327.7 Å² |
| CCCCCC/C=C\CCCCCCCC(=O)OC[C@@H](COC(=O)CCCCCCCCCCC)OC(=O)CCCCCCCCCCCCCCC [TG 12:0_16:0_16:1] (ion (formula + adduct): [C47H88O6+NH4] 1+) | TIMS collisional cross section | 299.2 Å² |
